Consider the following compounds; for each one, report its IC50.
System: U937 Cell line
Assay: tumor cell proliferation, MTT or CCK8 assay, 72 h incubation
Format: cell-based
Conditions: Homo sapiens, U-937; 72 h, MTT or CCK8; no unit in cell; read-out: IC50 on tumor cell proliferation, U937
Method: The heterocyclic alkynyl benzene compounds at different concentrations (1×10^−10˜1×10^−5M) were incubated for 72 hours individually applied to 6 cell lines K562 (human CML cell line), MOLT-4 (human ALL cell line), U937 (human CML cell line), MEG-01 (human CML cell line), L78 (human lung cancer cell line), Ba/F3-T315I (mice Pro-B cells transformed with Bcr-AblT315I and STI57′-resistant cell line). […]

Input Cc1ccc(C(=O)Nc2ccc(CN3CC[C@H](N(C)C)C3)c(C(F)(F)F)c2)cc1C#Cc1cnc2[nH]ncc2c1 . Output IC50: 18.5 nM

Input Cc1ccc(C(=O)Nc2ccc(CN3CC[C@@H](N(C)C)C3)c(C(F)(F)F)c2)cc1C#Cc1cnc2[nH]ncc2c1 . Output IC50: 817 nM

Input Cc1ccc(C(=O)Nc2ccc(CN3CCN(C)CC3)c(C(F)(F)F)c2)cc1C#Cc1cnc2ccnn2c1 . Output IC50: 2000 nM

Input Cc1ccc(C(=O)Nc2ccc(CN3CC[C@H](N(C)C)C3)c(C(F)(F)F)c2)cc1C#Cc1cnc2ccnn2c1 . Output IC50: 715 nM

---

system: U937 Cell line; experiment: tumor cell proliferation, MTT or CCK8 assay, 72 h incubation; format: cell-based; conditions: Homo sapiens, U-937; 72 h, MTT or CCK8; no unit in cell; read-out: IC50 on tumor cell proliferation, U937
Consider the following compounds; for each one, report its pIC50.
Conceptually, pIC50 converts a concentration in mol/L into minus its log10.

Input Cc1cn(-c2cccc(NC(=O)c3ccc(C)c(C#Cc4cnc5[nH]ncc5c4)c3)c2)cn1 . Output pIC50: 5.23

Input Cc1ccc(C(=O)Nc2ccc(CN3CCN(CCO)CC3)c(C(F)(F)F)c2)cc1C#Cc1cnc2ccnn2c1 . Output pIC50: 5.89

Input Cc1ccc(C(=O)Nc2ccc(CN3CCOCC3)c(C(F)(F)F)c2)cc1C#Cc1cnc2ccnn2c1 . Output pIC50: 5.34

Input Cc1ccc(C(=O)Nc2ccc(CN3CC[C@@H](N(C)C)C3)c(C(F)(F)F)c2)cc1C#Cc1cnc2ccnn2c1 . Output pIC50: 5.67

Input Cc1cn(-c2cc(NC(=O)c3ccc(C)c(C#Cc4cnc5ccnn5c4)c3)cc(C(C)(C)C)c2)cn1 . Output pIC50: 6.16

---

Experiment: Pharmacokinetics and bioavailability in rats
Format: in vivo
Settings: both sexes, Sprague-Dawley, rat, plasma, iv, 5 mg/kg, SD rats, IV 5 mg/kg
Description: Pharmacokinetics and bioavailability in rats. […] The blood samples were collected at the proper time points after administration, add heparin-anticoagulant, and the supernatants of the blood samples were collected (3000 rpm, 10 min) and stored at -20° C. for HPLC-MS analysis. […] The data were analyzed with software DAS2.0 to separately acquire the parameters of compartment models and non-compartment models. The bioavailability was calculated according to AUC data.
Where a name gives a salt, the structure may show the parent alone.
readout-name: AUC(0-inf) (ng·h/mL)
Hi! Could you send only the number? It should be in ng·h/mL, unit omitted.

Input Cc1ncn(-c2cc(NC(=O)c3ccc(C)c(C#Cc4cnc5[nH]ncc5c4)c3)cc(C(F)(F)F)c2)n1 [D835 hydrochloride salt] . Output AUC(0-inf): 8540

Input Cc1ccc(C(=O)Nc2ccc(CN3CCN(C)CC3)c(C(F)(F)F)c2)cc1C#Cc1cnc2ccnn2c1 [D856 dimesylate salt] . Output AUC(0-inf): 8170

Input Cc1ccc(C(=O)Nc2cc(-n3ccnc3)cc(C(F)(F)F)c2)cc1C#Cc1cnc2[nH]ncc2c1 [D831 mesylate salt] . Output AUC(0-inf): 107000

---

test: Pharmacokinetics and bioavailability in rats; assay type: in vivo; details: both sexes, Sprague-Dawley, rat, plasma, po, 20 mg/kg, SD rats, PO 20 mg/kg; read-out: Cmax
Counter-ions that a name gives are not always drawn.
readout-name: Cmax (ng/mL)
Hi! Could you send only the number? It should be in ng/mL, unit omitted.

Input Cc1cn(-c2cc(NC(=O)c3ccc(C)c(C#Cc4cnc(NC(C)C)nc4)c3)cc(C(F)(F)F)c2)cn1 [D752 mesylate salt] . Output Cmax: 1900

---

Consider the following compounds; for each one, report its AUC(0-inf).
assay: Pharmacokinetics and bioavailability in rats; format: in vivo; conditions: both sexes, Sprague-Dawley, rat, plasma, iv, 10 mg/kg, SD rats, IV 10 mg/kg
Structures can show the parent of a compound that is named as a salt.
Hi! Could you send only the number? It should be in µg·h/mL, unit omitted.

Input Cc1cn(-c2cc(NC(=O)c3ccc(C)c(C#Cc4cnc(NC5CC5)nc4)c3)cc(C(F)(F)F)c2)cn1 [D747 hydrochloride salt] . Output AUC(0-inf): 285

Input Cc1cn(-c2cc(NC(=O)c3ccc(C)c(C#Cc4cnc5ccnn5c4)c3)cc(C(F)(F)F)c2)cn1 [D822 mesylate salt] . Output AUC(0-inf): 13.8

Input Cc1cn(-c2cc(NC(=O)c3ccc(C)c(C#Cc4cnc(NC(C)C)nc4)c3)cc(C(F)(F)F)c2)cn1 [D752 mesylate salt] . Output AUC(0-inf): 305

---

target: BAF3-T315I cells (Ba/F3 cell line stably expressing BCR/ABL T315I) (Homo sapiens, UniProt P00519, T315I, cells depend on it); assay: tumor cell proliferation, MTT or CCK8 assay, 72 h incubation; assay type: cell-based, mice; settings: Ba/F3 expressing BCR/ABL T315I, 72 h, Table 1; read-out: IC50 on tumor cell proliferation, BAF3-T315I cells
readout-name: GI50

Input Cc1cn(-c2cc(F)cc(NC(=O)c3ccc(C)c(C#Cc4cnc5[nH]ncc5c4)c3)c2)cn1 [D963] . Output GI50: 243 nM

Input Cc1ccc(C(=O)Nc2ccc(CN3CC[C@@H](N(C)C)C3)c(C(F)(F)F)c2)cc1C#Cc1cnc2ccnn2c1 [D943] . Output GI50: 618 nM

Input Cc1cn(-c2cc(NC(=O)c3ccc(C)c(C#Cc4cnc5ncnn5c4)c3)cc(C(F)(F)F)c2)cn1 [D798] . Output GI50: 1860 nM

Input Cc1cn(-c2cc(NC(=O)c3ccc(C)c(C#Cc4cnc5nccn5c4)c3)cc(C(F)(F)F)c2)cn1 [D799] . Output GI50: > 10000 nM

Input Cc1ccc(C(=O)Nc2ccc(CN3CCOCC3)c(C(F)(F)F)c2)cc1C#Cc1cnc2ccnn2c1 [D931] . Output GI50: 2750 nM

Input Cc1ccc(C(=O)Nc2cc(-n3ccnc3)cc(C(F)(F)F)c2)cc1C#Cc1cnc2[nH]ncc2c1 [D831] . Output GI50: 36.8 nM

Input Cc1cn(-c2cc(NC(=O)c3ccc(C)c(C#Cc4cnc5[nH]ccc5c4)c3)cc(C(F)(F)F)c2)cn1 [D832] . Output GI50: 21.8 nM

Input Cc1cn(-c2cc(NC(=O)c3ccc(C)c(C#Cc4cnc(NC[C@H](O)CO)nc4)c3)cc(C(F)(F)F)c2)cn1 [D834] . Output GI50: 215 nM

Input Cc1ncn(-c2cc(NC(=O)c3ccc(C)c(C#Cc4cnc5[nH]ncc5c4)c3)cc(C(F)(F)F)c2)n1 [D835] . Output GI50: 8.58 nM

Input Cc1ccc(C(=O)Nc2ccc(CN3CC[C@H](N(C)C)C3)c(C(F)(F)F)c2)cc1C#Cc1cnc2[nH]ncc2c1 [D966] . Output GI50: 13.8 nM

Input Cc1ccc(C(=O)Nc2ccc(CN3CC[C@H](N(C)C)C3)c(C(F)(F)F)c2)cc1C#Cc1cnc2ccnn2c1 [D940] . Output GI50: 245 nM

Input Cc1cn(-c2cc(Cl)cc(NC(=O)c3ccc(C)c(C#Cc4cnc5[nH]ncc5c4)c3)c2)cn1 [D964] . Output GI50: 24.2 nM

Input Cc1cn(-c2cc(NC(=O)c3ccc(C)c(C#Cc4cnc5ccnn5c4)c3)cc(C(F)(F)F)c2)cn1 [D822] . Output GI50: 1100 nM

Input Cc1cn(-c2cc(NC(=O)c3ccc(C)c(C#Cc4cnc5ccnn5c4)c3)cc(C(C)(C)C)c2)cn1 [D941] . Output GI50: 102 nM

Input Cc1ccc(C(=O)Nc2cc(-n3ccnc3)cc(C(F)(F)F)c2)cc1C#Cc1cnc(NC2CC2)nc1 [D729] . Output GI50: 49.7 nM

Input Cc1ccc(C(=O)Nc2ccc(CN3CCN(C)CC3)c(C(F)(F)F)c2)cc1C#Cc1cnc2ccnn2c1 [D856] . Output GI50: 10.8 nM

Input Cc1cn(-c2cccc(NC(=O)c3ccc(C)c(C#Cc4cnc5[nH]ncc5c4)c3)c2)cn1 [D967] . Output GI50: 798 nM

Input Cc1cn(-c2cc(NC(=O)c3ccc(C)c(C#Cc4cnc5[nH]ncc5c4)c3)cc(C(F)(F)F)c2)cn1 [D767] . Output GI50: 4.24 nM

Input CCN(CC)c1ncc(C#Cc2cc(C(=O)Nc3cc(-n4cnc(C)c4)cc(C(F)(F)F)c3)ccc2C)cn1 [D807] . Output GI50: 13400 nM
